The values you see were collected from patent US20160362487A1.

- target_or_system: T1, cynomolgus monkey IL-33 expressed with a C-terminal hexahistidine tag (cynomolgus monkey)
- T1 construct: also called MfIL-33-6His; Mf-IL-33-6His
- T1 chain: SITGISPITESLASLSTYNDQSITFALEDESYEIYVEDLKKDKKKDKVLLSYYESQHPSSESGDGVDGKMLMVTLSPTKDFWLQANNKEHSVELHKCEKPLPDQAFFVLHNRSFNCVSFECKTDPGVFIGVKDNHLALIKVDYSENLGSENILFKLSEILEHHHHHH
- experimental_details: SPR 25C pH7.4, mAb captured

binder | t½ (min)
H4H9667P (antibody, human IgG4, V domains shown, Human IgG4 Fc (H4H)) VH: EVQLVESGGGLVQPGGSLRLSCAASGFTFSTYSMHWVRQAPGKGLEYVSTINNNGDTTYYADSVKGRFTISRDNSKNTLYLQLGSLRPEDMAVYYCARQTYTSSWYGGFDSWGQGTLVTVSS VL: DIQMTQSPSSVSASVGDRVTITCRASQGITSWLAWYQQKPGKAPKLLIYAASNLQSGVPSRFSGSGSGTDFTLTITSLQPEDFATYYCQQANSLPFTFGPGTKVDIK | 12
H4H9672P (antibody, human IgG4, V domains shown, Human IgG4 Fc (H4H)) VH: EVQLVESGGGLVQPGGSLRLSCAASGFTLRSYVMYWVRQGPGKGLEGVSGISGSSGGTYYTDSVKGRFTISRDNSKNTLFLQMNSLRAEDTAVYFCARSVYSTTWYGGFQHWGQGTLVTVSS VL: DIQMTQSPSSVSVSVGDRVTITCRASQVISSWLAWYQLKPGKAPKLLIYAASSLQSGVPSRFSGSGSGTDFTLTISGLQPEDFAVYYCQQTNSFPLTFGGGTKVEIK | 3.2
H4H9662P (antibody, V domains shown, Human IgG4 Fc (H4H)) VH: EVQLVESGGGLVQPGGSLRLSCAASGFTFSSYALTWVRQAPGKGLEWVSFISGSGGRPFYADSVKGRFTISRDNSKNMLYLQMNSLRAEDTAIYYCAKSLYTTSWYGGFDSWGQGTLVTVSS VL: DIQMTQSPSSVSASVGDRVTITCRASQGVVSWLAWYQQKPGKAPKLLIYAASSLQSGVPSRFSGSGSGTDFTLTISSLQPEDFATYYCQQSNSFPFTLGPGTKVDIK | 26
H1M9559N (antibody, mouse IgG1, V domains shown, Human variable domains, mouse IgG1 Fc (H1M)) VH: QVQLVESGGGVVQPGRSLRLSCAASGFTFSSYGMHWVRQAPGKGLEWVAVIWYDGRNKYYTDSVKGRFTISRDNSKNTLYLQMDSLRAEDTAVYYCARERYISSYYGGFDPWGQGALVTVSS VL: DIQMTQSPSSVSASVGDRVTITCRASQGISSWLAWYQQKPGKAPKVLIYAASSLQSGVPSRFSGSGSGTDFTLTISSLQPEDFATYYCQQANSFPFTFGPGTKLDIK | 9
H4H9665P (antibody, human IgG4, V domains shown, Human IgG4 Fc (H4H)) VH: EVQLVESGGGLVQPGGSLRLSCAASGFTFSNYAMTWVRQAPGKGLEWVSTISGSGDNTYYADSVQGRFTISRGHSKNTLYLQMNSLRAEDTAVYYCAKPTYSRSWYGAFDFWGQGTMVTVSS VL: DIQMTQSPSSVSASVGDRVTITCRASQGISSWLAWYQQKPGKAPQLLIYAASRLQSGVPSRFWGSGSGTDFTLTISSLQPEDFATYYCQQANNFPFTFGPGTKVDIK | 20
H4H9629P (antibody, human IgG4, V domains shown, Human IgG4 Fc (H4H)) VH: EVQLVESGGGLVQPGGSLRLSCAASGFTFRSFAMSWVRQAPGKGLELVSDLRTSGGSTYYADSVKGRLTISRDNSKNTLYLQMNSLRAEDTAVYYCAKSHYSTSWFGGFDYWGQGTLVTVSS VL: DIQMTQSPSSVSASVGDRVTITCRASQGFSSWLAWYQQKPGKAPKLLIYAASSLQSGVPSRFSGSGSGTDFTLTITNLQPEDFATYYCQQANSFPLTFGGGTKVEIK | 0.9
H4H9640P (antibody, human IgG4, V domains shown, Human IgG4 Fc (H4H)) VH: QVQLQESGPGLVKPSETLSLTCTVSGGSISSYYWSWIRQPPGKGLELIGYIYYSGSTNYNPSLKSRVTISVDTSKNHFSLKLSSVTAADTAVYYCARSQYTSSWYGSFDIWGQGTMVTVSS VL: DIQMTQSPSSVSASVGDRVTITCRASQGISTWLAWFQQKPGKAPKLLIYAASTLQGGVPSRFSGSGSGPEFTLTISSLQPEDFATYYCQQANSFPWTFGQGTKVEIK | 8
H4H9633P (antibody, human IgG4, V domains shown, Human IgG4 Fc (H4H)) VH: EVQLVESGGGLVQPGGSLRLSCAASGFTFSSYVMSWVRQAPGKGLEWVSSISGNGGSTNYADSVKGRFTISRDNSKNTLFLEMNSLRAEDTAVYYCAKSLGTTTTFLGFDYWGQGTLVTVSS VL: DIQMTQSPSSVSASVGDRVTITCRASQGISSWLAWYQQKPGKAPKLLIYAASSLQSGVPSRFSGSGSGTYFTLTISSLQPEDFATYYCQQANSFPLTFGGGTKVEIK | 1.2
H4H9675P (antibody, human IgG4, V domains shown, Human IgG4 Fc (H4H)) VH: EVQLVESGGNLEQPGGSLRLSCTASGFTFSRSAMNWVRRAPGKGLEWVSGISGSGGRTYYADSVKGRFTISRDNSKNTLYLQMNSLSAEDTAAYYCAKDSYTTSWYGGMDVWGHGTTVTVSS VL: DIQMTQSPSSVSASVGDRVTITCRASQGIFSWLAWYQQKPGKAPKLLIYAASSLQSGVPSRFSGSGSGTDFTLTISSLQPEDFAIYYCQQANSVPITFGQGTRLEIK | 9
H4H9660P (antibody, human IgG4, V domains shown, Human IgG4 Fc (H4H)) VH: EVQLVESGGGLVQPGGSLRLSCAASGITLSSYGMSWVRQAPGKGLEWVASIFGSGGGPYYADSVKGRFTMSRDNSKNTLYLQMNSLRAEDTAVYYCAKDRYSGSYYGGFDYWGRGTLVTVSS VL: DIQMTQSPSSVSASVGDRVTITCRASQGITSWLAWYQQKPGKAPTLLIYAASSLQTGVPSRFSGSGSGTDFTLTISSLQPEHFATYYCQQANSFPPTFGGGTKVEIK | 8
H4H9670P (antibody, V domains shown, Human IgG4 Fc (H4H)) VH: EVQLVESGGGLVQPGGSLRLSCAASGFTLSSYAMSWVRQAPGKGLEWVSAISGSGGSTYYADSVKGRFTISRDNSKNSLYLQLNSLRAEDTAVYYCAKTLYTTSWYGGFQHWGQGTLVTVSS VL: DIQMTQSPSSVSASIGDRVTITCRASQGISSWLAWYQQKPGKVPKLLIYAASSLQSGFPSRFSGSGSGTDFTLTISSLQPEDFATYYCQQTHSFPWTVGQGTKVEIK | 6
